Biological target: Recombinant Human Poly(ADP-Ribose) Polymerase (PARP), PARP-1 (Homo sapiens (Human), UniProt P09874)
Sequence (P09874 whole entry): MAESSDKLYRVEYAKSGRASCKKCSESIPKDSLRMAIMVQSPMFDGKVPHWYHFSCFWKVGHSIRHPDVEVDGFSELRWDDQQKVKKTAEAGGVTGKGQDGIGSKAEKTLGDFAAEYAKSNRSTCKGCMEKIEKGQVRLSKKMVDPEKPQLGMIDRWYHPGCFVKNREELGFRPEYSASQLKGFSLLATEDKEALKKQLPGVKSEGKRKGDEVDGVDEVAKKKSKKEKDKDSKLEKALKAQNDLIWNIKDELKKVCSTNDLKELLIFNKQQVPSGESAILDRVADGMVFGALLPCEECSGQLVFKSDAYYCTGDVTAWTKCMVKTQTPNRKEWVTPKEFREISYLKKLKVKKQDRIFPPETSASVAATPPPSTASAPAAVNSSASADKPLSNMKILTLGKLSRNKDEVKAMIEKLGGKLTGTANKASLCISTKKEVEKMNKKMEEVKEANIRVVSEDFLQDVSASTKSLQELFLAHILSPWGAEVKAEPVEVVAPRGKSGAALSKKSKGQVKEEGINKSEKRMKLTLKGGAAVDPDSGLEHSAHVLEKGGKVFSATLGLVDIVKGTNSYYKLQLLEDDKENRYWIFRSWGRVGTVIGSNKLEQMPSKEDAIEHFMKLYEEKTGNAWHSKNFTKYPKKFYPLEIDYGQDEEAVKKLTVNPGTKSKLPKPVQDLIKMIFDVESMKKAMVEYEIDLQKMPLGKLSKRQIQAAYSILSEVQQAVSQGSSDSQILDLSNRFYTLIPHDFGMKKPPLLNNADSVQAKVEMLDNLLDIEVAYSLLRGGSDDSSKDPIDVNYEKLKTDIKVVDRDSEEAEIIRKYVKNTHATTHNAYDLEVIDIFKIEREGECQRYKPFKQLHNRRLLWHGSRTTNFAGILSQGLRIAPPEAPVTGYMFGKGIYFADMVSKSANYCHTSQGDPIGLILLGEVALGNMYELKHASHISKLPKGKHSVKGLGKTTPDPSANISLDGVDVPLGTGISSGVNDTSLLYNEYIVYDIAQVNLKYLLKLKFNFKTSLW
Settings: read-out: PARP-1 (Ki); Table 1; text calls the values EC50s
Measurement label: Ki (nM)

a: O=C(c1ccc(F)cc1)C1CCN(C(=O)c2cc(Cc3n[nH]c(=O)c4c3NCCC4)ccc2F)CC1 [Example 691]
b: O=C(NCCc1ccncc1)c1cccc(Cc2n[nH]c(=O)c3c2CCCC3)c1 [Example 381]
Select one. Lower Ki: a or b Could you answer with the label of the item you picked?
a

A: Cc1ccccc1OCC(=O)Nc1cccc(Cc2n[nH]c(=O)c3c2CCCC3)c1 [Example 149]
B: CC(C)c1ccc(NC(=O)c2cccc(Cc3n[nH]c(=O)c4c3CCCC4)c2)cc1 [Example 334]
C: COc1cccc(CCC(=O)Nc2cccc(Cc3n[nH]c(=O)c4c3CCCC4)c2)c1 [Example 161]
D: CN1CCCN(C(=O)c2cc(Cc3n[nH]c(=O)c4c3NCCC4)ccc2F)CC1 [Example 509]
Order the 4 molecules from highest to lowest Ki. List the labels, following the order given in the request.
B, C, A, D
